# TARGET ENTITY: T1, Human TNFR2-His (Sino 10417-H08H) (human, UniProt P20333 23-257)
# T1 construct: Bought protein; also called recombinant human TNFR2 protein; not shown: His tag
# T1 sequence (looked up): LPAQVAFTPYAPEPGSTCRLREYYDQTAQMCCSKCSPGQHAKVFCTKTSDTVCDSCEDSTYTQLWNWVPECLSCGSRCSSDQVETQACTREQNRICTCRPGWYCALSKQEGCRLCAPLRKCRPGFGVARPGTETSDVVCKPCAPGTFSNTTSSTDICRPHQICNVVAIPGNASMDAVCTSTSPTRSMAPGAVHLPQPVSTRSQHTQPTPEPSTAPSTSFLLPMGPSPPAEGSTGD
# ASSAY COMMENT: ELISA, human TNFR2-His coated; EC50 against 224-WT
# % Relative activity (WT antibody/test antibody) per entry
QUANTITY: % Relative activity (WT antibody/test antibody) (%)

224-Hu6 (antibody, V domains shown, Humanized form of #224; also called VH8 + VL7) VH: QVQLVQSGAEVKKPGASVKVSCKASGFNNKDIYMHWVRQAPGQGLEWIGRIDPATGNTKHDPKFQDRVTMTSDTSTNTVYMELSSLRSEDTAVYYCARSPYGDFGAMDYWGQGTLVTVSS VL: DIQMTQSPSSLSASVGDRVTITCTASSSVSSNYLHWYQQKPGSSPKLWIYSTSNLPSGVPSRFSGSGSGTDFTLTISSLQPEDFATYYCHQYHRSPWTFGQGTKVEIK
104
224-Hu1 (antibody, V domains shown, Humanized form of #224; also called VH8 + VL6) VH: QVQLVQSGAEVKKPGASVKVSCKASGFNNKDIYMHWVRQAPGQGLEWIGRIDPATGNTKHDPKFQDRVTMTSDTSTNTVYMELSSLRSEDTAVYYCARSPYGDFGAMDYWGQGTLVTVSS VL: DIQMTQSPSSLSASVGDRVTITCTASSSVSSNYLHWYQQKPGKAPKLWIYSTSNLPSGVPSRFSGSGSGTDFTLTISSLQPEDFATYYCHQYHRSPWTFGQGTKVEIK
143
224-Hu5 (antibody, V domains shown, Humanized form of #224; also called VH9 + VL9) VH: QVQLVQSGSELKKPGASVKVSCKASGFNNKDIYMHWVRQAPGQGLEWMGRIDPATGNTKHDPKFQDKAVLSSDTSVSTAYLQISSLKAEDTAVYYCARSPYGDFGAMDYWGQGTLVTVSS VL: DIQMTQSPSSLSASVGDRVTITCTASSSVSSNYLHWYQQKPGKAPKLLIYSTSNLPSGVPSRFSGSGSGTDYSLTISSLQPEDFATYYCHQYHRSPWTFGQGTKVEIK
99.4
224-Hu4 (antibody, V domains shown, Humanized form of #224; also called VH9 + VL6) VH: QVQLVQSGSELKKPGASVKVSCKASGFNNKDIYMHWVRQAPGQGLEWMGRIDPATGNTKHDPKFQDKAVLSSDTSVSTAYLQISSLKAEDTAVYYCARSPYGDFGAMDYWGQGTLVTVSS VL: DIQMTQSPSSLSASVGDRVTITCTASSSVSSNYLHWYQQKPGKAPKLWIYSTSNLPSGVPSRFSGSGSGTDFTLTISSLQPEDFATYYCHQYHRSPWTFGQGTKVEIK
108
224-Hu3 (antibody, V domains shown, Humanized form of #224; also called VH9 + VL8) VH: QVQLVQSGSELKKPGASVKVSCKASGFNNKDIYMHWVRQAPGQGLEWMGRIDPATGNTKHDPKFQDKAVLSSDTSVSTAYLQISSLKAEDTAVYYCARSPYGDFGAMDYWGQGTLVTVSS VL: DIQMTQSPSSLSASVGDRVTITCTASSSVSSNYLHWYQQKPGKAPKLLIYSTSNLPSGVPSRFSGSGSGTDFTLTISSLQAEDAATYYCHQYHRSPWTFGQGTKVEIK
122
